Numbers sourced from patent US20240075093A1.

Experiment: intracellular half-life of Selectide-18-FITC
Type: cell-based
Conditions: human, UACC-62 melanoma cells (intracellular); FITC intensity normalized to 1 h; read-out: half-life (HL) in cells (converted)
Where no end group is shown, it is not given here.
endpoint.label: half-life

sequence.data: TKKSTKTINPSKYQTIRK [Selectide-18]
endpoint.label: half-life
observed: 77 h

----------
Experiment: half-life of αCT1
Assay type: in vitro ADME
Settings: cell culture treatment
Where no end group is shown, it is not given here.
endpoint.label: half-life

sequence.data: RQPKIWFPNRRKPWKKRPRPDDLEI [αCT1]
observed: ~48 h

----------
System: LN229/GSCs
Test: TMZ sensitivity of LN229/GSCs
Format: cell-based
Conditions: Homo sapiens, LN-229

molecule: Cn1nnc2c(C(N)=O)ncn2c1=O [TMZ, temozolomide]
IC50 (µM): 100
